Target: DEP domain-containing mTOR-interacting protein (Homo sapiens)
Assay: Inhibition of mTOR binding to DEPTOR in human RPMI8226 cells at 0.5 uM treated 6 hrs followed by DEPTOR immunoprecipitation by immunoblotting analysis
Type: cell-based
Activity calls are given as the source filed them. No cut-off for these calls is given here.
Would you mind answering with one of these outcomes? active, inactive

Below, 3 molecules whose answers are already recorded.
| SMILES_ENTRY | CLASS_NAME |
| --- | --- |
| NN=C1C(Cl)=C(Cl)C(Cl)=C1Cl | inactive |
| CC(C)(C)OC(=O)NN=C1C(Cl)=C(Cl)C(Cl)=C1Cl | active |
| Fc1ccc(NN=C2C(Cl)=C(Cl)C(Cl)=C2Cl)cc1 | active |

Attention now shifts to the item below.
**Query** Look up the recorded call for FC(F)(F)c1cccc(NN=C2C(Cl)=C(Cl)C(Cl)=C2Cl)c1 in this test.
**Result** active

====

System: RPMI-8226
Assay: Cytotoxicity against human RPMI8226 cells after 48 hrs by MTT assay
Type: functional, cell-based
Conditions: RPMI-8226, 48 h
MEASURE: IC50

Answered cases to consult:
| SMILES_ENTRY | IC50 |
| --- | --- |
| Fc1ccccc1NN=C1C(Cl)=C(Cl)C(Cl)=C1Cl | > 3000 nM |
| NN=c1c2ccccc2oc2ccccc12 | > 5000 nM |
| CC(C)(C)NN=C1C(Cl)=C(Cl)C(Cl)=C1Cl | 3000 to 5000 nM |
| ON=C1C(Cl)=C(Cl)C(Cl)=C1Cl | > 5000 nM |
| COc1cccc(NN=C2C(Cl)=C(Cl)C(Cl)=C2Cl)c1 | > 3000 nM |

Please turn your attention to the following entry.
**Query** // IC50 lookup, key: COC1(OC)C(Cl)=C(Cl)C(Cl)=C1Cl
**Result** > 5000 nM

====

System: RPMI-8226
Experiment: Cytotoxicity against human RPMI8226 cells after 48 hrs by MTT assay
Type: functional, cell-based
Conditions: RPMI-8226, 48 h
MEASURE: IC50

Answered cases to consult:
| SMILES_ENTRY | TEST_TARGET | REPORTED_VALUE |
| --- | --- | --- |
| NN=C1c2ccccc2-c2ccccc21 | RPMI-8226 | > 5000 nM |
| NN=C1C(Cl)=C(Cl)C(Cl)=C1Cl | RPMI-8226 | 1300 to 1500 nM |
| ClC1=C(Cl)C(Cl)=C(Cl)C1=NNC1CCCCC1 | RPMI-8226 | 3000 to 5000 nM |

**Query** API: value(readout=IC50, system=RPMI-8226) for record CC(C)(C)OC(=O)NN=C1C(Cl)=C(Cl)C(Cl)=C1Cl
**Result** 100 to 110 nM

**Query** Follow-up entry: FC(F)(F)c1cccc(NN=C2C(Cl)=C(Cl)C(Cl)=C2Cl)c1
**Result** 110 to 170 nM

**Query** Follow-up entry: CN(C)N=C1C(Cl)=C(Cl)C(Cl)=C1Cl
**Result** 1300 to 3000 nM

**Query** Follow-up entry: CC(C)(C)OC(=O)NN=C1c2ccccc2-c2ccccc21
**Result** > 5000 nM

**Query** Follow-up entry: ClC1=C(Cl)C(Cl)=C(Cl)C1=NN(c1ccccc1)c1ccccc1
**Result** > 3000 nM

====

System: RPMI-8226
Experiment: Cytotoxicity against human RPMI8226 cells after 48 hrs by MTT assay
Format: functional, cell-based
Conditions: RPMI-8226, 48 h
MEASURE: IC50 (nM)
Express it in nM; write the number only.

Answered cases to consult:
| SMILES_ENTRY | IC50 [nM] |
| --- | --- |
| Cc1ccc(C(=O)N(N=C2C(Cl)=C(Cl)C(Cl)=C2Cl)C(=O)c2ccc(C)cc2)cc1 | 500 |
| ClC1=C(Cl)C(Cl)=C(Cl)C1=NNc1cc(Cl)cc(Cl)c1 | 800 |
| O=C(NN=C1C(Cl)=C(Cl)C(Cl)=C1Cl)c1ccccc1 | 600 |
| Cc1cccc(NN=C2C(Cl)=C(Cl)C(Cl)=C2Cl)c1 | 2000 |
| C#CCOC(=O)NN=C1C(Cl)=C(Cl)C(Cl)=C1Cl | 800 |

**Query** // IC50 lookup, key: O=C(c1ccccc1)N(N=C1C(Cl)=C(Cl)C(Cl)=C1Cl)C(=O)c1ccccc1
**Result** 800

**Query** Follow-up entry: CC(=O)NN=C1C(Cl)=C(Cl)C(Cl)=C1Cl
**Result** 1000

====

Tested on: RPMI-8226
Experiment: Cytotoxicity against human RPMI8226 cells after 48 hrs by MTT assay
Type: functional, cell-based
Details: RPMI-8226, 48 h
MEASURE: IC50

Answered cases to consult:
| SMILES_ENTRY | IC50 |
| --- | --- |
| C#CC(C)(C)OC(=O)NN=C1C(Cl)=C(Cl)C(Cl)=C1Cl | > 5 µM |
| O=C(c1ccc(F)cc1)N(N=C1C(Cl)=C(Cl)C(Cl)=C1Cl)C(=O)c1ccc(F)cc1 | 0.2 to 0.25 µM |
| CC(C)(C)C(=O)NN=C1C(Cl)=C(Cl)C(Cl)=C1Cl | 0.09 to 0.12 µM |
| Fc1cccc(NN=C2C(Cl)=C(Cl)C(Cl)=C2Cl)c1 | 0.5 to 0.6 µM |
| Fc1cccc(NN=C2c3ccccc3-c3ccccc32)c1 | > 5 µM |

**Query** API: value(readout=IC50, system=RPMI-8226) for record Fc1ccc(NN=C2C(Cl)=C(Cl)C(Cl)=C2Cl)cc1
**Result** 0.6 to 0.7 µM

**Query** Follow-up entry: ClC1=C(Cl)C(Cl)=C(Cl)C1=NNc1ccccc1
**Result** 0.6 to 0.7 µM

**Query** Follow-up entry: NN=C(c1ccccc1)c1ccccc1
**Result** > 5 µM
